PROCEDURE SUMMARY: Mouse whole blood stability test
Type: in vitro ADME
CONDITION SUMMARY: mouse, blood; read-out: Mouse blood stability T1/2 (converted)
OUTCOME MEASURE: half-life at 1 μM
Just so you know, I need the unit written after the number.

Suppose we examine the molecule CC[C@@]1(O)C(=O)OCc2c1cc1n(c2=O)Cc2c-1nc1cc(F)c(C)c3c1c2[C@@H](NC(=O)CO)CC3 [Dxd, reference compound] ; what half-life at 1 μM value has been reported?
62.6 h

###

PROCEDURE SUMMARY: Mouse whole blood stability test
Assay type: in vitro ADME
CONDITION SUMMARY: whole blood; mouse blood; read-out: Mouse blood stability T1/2 (converted)
Entries and their half-life at 1 μM values follow.
Just so you know, I need the unit written after the number.

# COMPOUND, MEASURED RESULT
measured = [
    ("CC[C@@]1(O)C(=O)OCc2c1cc1n(c2=O)Cc2c-1nc1cc(F)c(C)c3c1c2[C@@H](NC(=O)COCNC(=O)[C@@H](N)Cc1ccccc1)CC3 [P7]", "0.2 h"),
]

Now examine the next entry.
Suppose we examine the compound CC[C@@]1(O)C(=O)OCc2c1cc1n(c2=O)Cc2c-1nc1cc(F)c(C)c3c1c2[C@@H](NC(=O)COCNC(=O)[C@@H](N)CCC(=O)O)CC3 [P4] ; what half-life at 1 μM value has been reported?
9.2 h
